target or system: ABL1 (Homo sapiens, UniProt P00519)
Construct: purchased Carna Biosciences
Sequence (P00519 whole entry): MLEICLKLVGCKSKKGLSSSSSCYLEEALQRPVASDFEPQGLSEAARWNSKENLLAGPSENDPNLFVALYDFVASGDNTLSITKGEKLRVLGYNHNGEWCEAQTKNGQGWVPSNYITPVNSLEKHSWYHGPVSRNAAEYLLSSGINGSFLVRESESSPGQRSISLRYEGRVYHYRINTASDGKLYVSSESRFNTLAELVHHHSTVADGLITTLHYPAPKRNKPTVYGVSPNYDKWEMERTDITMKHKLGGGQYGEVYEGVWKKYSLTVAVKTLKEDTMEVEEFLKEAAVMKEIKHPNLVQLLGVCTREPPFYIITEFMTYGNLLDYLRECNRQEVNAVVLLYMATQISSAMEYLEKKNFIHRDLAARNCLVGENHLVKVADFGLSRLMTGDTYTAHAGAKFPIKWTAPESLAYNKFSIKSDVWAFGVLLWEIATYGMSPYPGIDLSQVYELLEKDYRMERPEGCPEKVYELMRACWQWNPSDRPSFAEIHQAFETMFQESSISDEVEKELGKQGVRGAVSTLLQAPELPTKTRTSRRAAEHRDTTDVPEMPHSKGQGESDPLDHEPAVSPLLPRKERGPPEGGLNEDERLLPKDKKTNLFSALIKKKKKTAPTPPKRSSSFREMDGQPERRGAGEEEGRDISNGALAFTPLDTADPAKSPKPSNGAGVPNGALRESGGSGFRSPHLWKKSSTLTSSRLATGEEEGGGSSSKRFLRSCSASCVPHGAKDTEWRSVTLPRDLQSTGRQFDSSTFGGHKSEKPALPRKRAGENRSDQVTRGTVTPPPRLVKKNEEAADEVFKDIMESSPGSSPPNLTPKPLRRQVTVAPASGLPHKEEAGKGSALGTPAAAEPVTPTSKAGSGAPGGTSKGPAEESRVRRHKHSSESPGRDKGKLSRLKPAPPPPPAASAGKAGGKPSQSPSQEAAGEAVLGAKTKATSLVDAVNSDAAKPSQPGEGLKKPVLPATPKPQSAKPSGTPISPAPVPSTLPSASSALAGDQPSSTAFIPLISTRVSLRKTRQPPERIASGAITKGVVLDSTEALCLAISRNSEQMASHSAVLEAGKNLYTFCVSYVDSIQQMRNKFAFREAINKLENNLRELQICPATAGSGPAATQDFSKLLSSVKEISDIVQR
experiment summary: Luminescence-based ABL kinase assay (300 μM ATP), ADP-Glo
Assay type: biochemical
quantity name: IC50 (nM)
Give just the number in nM; leave the unit off.

// IC50 value for COc1ccccc1-c1cc2cc(NC(=O)NCCN3CCOCC3)ncc2n1C [Compound 80] : 155

Record [2H]C([2H])([2H])Oc1ncccc1-c1cc2cc(NC(=O)[C@H]3C[C@H]3F)ncc2n1C [Compound 33] . Reported IC50: 59.5

Please fill in: IC50 reported for CCOc1nccc(C)c1-c1cc2cc(NC(=O)[C@@H]3C[C@@H]3F)ncc2n1C [Compound 114] = 77

Sample COc1cc(C)nc(OC)c1-c1cc2cc(NC(=O)[C@@H]3C[C@@H]3F)ncc2n1C [Compound 98] ; IC50 observed: 11.6

Documented IC50 of COc1ncccc1-c1cc2cnc(NC(=O)C3CC3)cc2n1C [Compound 50] : 294

The measured IC50 associated with COc1ccccc1-c1c(C)c2cc(NC(=O)[C@H]3C[C@H]3F)ncc2n1C [Compound 44] reads 74.5

Briefly, IC50 measured for CCOc1ncc(F)cc1-c1cc2cc(NC(=O)[C@@H]3C[C@@H]3F)ncc2n1C [Compound 143] : 74.9

Quick note, IC50 for CCN1CCN(CCNC(=O)Nc2cc3cc(-c4c(OC)cccc4OC)n(C)c3cn2)CC1 [Compound 87] landed at 35

Measured IC50, COc1ncc(F)c(OC)c1-c1cc2cc(NC(=O)[C@H]3C[C@@H]3CN3CCN(C)CC3)ncc2n1C (single isomer, unassigned) [Compound 128] : 13.4

Consider COc1cnnc(OC)c1-c1cc2cc(NC(=O)[C@@H]3C[C@@H]3F)ncc2n1C [Compound 107] . Its measured IC50 is 17.4

The recorded IC50 for entry COc1nccc(C)c1-c1cc2cc(NC(=O)[C@@H]3C[C@@H]3F)ncc2n1C [Compound 59] equals 40.2

Entry Cn1c(-c2cccc3[nH]cnc23)cc2cc(NC(=O)[C@@H]3C[C@@H]3F)ncc21 [Compound 73] — recorded IC50 = 519

# compound COc1cc2nccn2cc1-c1cc2cc(NC(=O)[C@@H]3C[C@@H]3F)ncc2n1C [Compound 71] ; its IC50 = 105

The reported value for [2H]C([2H])([2H])Oc1ncc(F)cc1-c1cc2cc(NC(=O)[C@@H]3C[C@@H]3F)ncc2n1C([2H])([2H])[2H] [Compound 88] in terms of IC50 is 409

Recorded IC50 (compound CCOc1ncccc1-c1cc2cc(NC(=O)[C@@H]3C[C@@H]3F)ncc2n1C [Compound 36] ): 6.33

Data point: CCNC(=O)Nc1cc2cc(-c3cccnc3OC)n(C)c2cn1 [Compound 78] ; IC50 = 183

The measured IC50 associated with COc1ncnc(OC)c1-c1cc2cc(NC(=O)C3CC3)ncc2n1C [Compound 118] reads 35.3

Short answer for Cn1c(-c2ccccc2OCCO)cc2cc(NC(=O)C3CC3)ncc21 [Compound 4] : IC50 was 817

Query COc1ccnc(OC)c1-c1cc2cc(NC(=O)[C@@H]3C[C@H]3CN(C)C)ncc2n1C (single isomer, unassigned) [Compound 122] yields IC50 of 53.4

Entry COc1cccc(F)c1-c1c(C)c2cnc(NC(=O)[C@H]3C[C@H]3F)cc2n1C [Compound 55] , IC50 reported as 71.3

// sample CNc1ncnc(OC)c1-c1cc2cc(NC(=O)[C@@H]3C[C@@H]3F)ncc2n1C [Compound 109] , its IC50 was 60.2

Memo: COc1ncc(F)c(OC)c1-c1cc2cc(NC(=O)[C@@H]3C[C@H]3CN3CCN(C)CC3)ncc2n1C (single isomer, unassigned) [Compound 129] , reported IC50: 33.4

// recorded IC50 for COc1ccccc1-c1cc2cc(NC(=O)[C@@H]3C[C@H]3CN(C)C)ncc2n1C (single isomer, unassigned) [Compound 132] : 59.4

COc1nc(C)c(F)c(OC)c1-c1cc2cc(NC(=O)[C@@H]3C[C@@H]3F)ncc2n1C [Compound 101] has a reported IC50 of 153

Summary for this compound, COc1nc(OC)c(-c2cc3cc(NC(=O)[C@@H]4C[C@@H]4F)ncc3n2C)c(OC)n1 [Compound 102] : IC50 is 123

IC50 recorded for this compound, CNc1nc(OC)c(-c2cc3cc(NC(=O)[C@@H]4C[C@@H]4F)ncc3n2C)c(OC)n1 [Compound 105] , is 71.4

The measured IC50 associated with Cn1c(-c2cccc3c2CCN3)cc2cc(NC(=O)[C@@H]3C[C@@H]3F)ncc21 [Compound 31] reads 10.7

Form: compound = Cn1c(-c2cccnc2OC2CC2)cc2cc(NC(=O)[C@@H]3C[C@@H]3F)ncc21 [Compound 115] ; IC50 = 18.5

For reference, reported IC50 for COc1ccnc(OC)c1-c1cc2cc(NC(=O)[C@@H]3C[C@H]3CN3CCNCC3)ncc2n1C (single isomer, unassigned) [Compound 139] stands at 48.6

The value of IC50 measured for the compound COc1cccc(F)c1-c1cc2cc(NC(=O)[C@@H]3C[C@@H]3F)ncc2n1C [Compound 27] turned out to be 40.7
